target: HCA1 (Homo sapiens, UniProt Q9BXC0); construct: endogenous receptor in BT-474 cells; assay: AlphaScreen cAMP assay, inhibition of forskolin-induced cAMP in BT-474 cells, pertussis toxin sensitive
Sequence (Q9BXC0 whole entry): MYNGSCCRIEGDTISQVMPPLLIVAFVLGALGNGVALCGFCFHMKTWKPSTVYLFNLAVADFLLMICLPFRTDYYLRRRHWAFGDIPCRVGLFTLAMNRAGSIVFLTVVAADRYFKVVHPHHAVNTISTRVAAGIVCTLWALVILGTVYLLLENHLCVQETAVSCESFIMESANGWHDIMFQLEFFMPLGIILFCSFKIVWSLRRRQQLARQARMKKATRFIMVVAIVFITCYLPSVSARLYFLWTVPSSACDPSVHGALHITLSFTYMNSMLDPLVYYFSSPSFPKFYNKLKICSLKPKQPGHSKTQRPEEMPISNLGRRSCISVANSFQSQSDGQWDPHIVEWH
pEC50: −log10 of the molar value.

Compound | pEC50
C[C@H](O)C(=O)O [lactate] | 2.47

* * *

target: HCA3 (Homo sapiens); construct: endogenous receptor in BT-474 cells; assay: AlphaScreen cAMP assay, inhibition of forskolin-induced cAMP in BT-474 cells, pertussis toxin sensitive
Sequence (P49019 whole entry): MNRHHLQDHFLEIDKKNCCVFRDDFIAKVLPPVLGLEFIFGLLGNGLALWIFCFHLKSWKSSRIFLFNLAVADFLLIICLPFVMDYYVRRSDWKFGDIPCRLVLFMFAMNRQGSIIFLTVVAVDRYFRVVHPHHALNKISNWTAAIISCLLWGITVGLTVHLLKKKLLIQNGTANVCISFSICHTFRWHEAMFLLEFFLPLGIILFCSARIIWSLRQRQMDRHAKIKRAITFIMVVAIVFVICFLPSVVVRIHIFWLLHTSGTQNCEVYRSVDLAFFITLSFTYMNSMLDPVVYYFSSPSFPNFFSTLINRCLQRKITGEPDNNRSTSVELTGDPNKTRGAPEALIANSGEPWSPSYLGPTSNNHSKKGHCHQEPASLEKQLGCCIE

Compound | Target Of Assay | Endpoint Unit | EC50
CCCCCC(O)CC(=O)O (stereo not shown) [3HO, 3-hydroxyoctanoate] | HCA3 (Homo sapiens) | µM | 9.5

Where these numbers come from: paper PMC4637315
